# Tested on: MDA-MB-231 breast
# test.name: NCI-60 one-dose screen, 48 h (100 = growth as untreated, 0 = no growth, -100 = all killed)
# test.settings: 10 µM unless noted
About 83,000 compounds went through this panel and 20% of them were active in at least one assay; those are over-represented in the sample as a whole.
experimental.readout: growth (%)
The reply should be a number in %, with the unit left off.

Guide cases for growth, answers given:
CC(=O)O[C@H]1CC[C@]2(C)[C@H]3CC[C@]4(C)[C@@H](OC(C)=O)CC[C@H]4[C@@H]3[C@@H](C)[C@]2(O)C1 108
CCCCN(CCCC)P(=O)(Oc1ccccc1)Oc1ccccc1 69.3

Consider now this further molecule.
# input Data request, read-out growth, for Cc1c(NS(=O)(=O)c2ccccc2)ccc([N+](=O)[O-])c1Cl
# output 84.8
